B1: glmS ribozyme (parent)
chain: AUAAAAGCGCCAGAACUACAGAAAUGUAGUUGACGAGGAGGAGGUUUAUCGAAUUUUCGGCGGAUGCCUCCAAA

variants of: B1; experiment: self-cleavage kobs at 2500 uM GlcN6P; higher = faster cleavage; RNA array; settings: with glucosamine-6-phosphate
Fewer inactive variants are shown than the library holds.

| VARIANT_IDENTIFIER | READOUT_RELATION | self-cleavage kobs at 2500 uM GlcN6P [s⁻¹] |
| --- | --- | --- |
| A12C G38C C71U | < | 1e-05 |
| G7U C8G G51C | < | 1e-05 |
| C10U G63A | < | 1e-05 |
| A14U G51A C58G G60U G63U U65A | < | 1e-05 |
| C16G G40U U69G | < | 1e-05 |
| G29C C61G G62A C70G | = | 0.000307 |
| G13C G35A | < | 1e-05 |
| C8U G51U U57C C58A | < | 1e-05 |
| A12U G13U A48U G51C U54G C71U | < | 1e-05 |
| U30G G41C G60A | < | 1e-05 |
| C16A G32C | = | 5.99e-05 |
| U30G G40U | = | 0.000615 |
| G9C A15G U45G | < | 1e-05 |
| G35A U49A C67G C68G | = | 0.000118 |
| A15G G44U U54C | = | 0.00016 |
| U31A U45C | = | 0.000998 |
| C10A U69A | = | 3.89e-05 |
| G7A G37U | < | 1e-05 |
| U46A C61G | < | 1e-05 |
| U31C G37A G59A C61U G66A | < | 1e-05 |
| A36C G62A | < | 1e-05 |
| C11U G29U | = | 0.000407 |
| C8U U30A U31C A48U C68U | < | 1e-05 |
| G13A A14G | = | 0.000888 |
| C10U G37U G43U A52G G60U | < | 1e-05 |
| G13U G32C | = | 0.000121 |
| A36G U46A C70A | < | 1e-05 |
| G44A | = | 0.000389 |
| G13U A48G U57G | < | 1e-05 |
| C16A U56G U65G | = | 0.000165 |
| C11U U55G C71A | = | 0.000143 |
| C16U A42U | = | 0.000107 |
| C16G G32U | = | 0.00032 |
| G40U U45A U56G | = | 0.000611 |
| G44C U46G G63A | < | 1e-05 |
| G7U G35U U54C G60A C67G C68A | = | 5.54e-05 |
| C16G U56C | = | 0.000276 |
| U54G U65C | = | 0.000567 |
| G32A U45G | = | 0.000204 |
| G40C U54G | = | 0.0025 |
| G35U G66U C70U | < | 1e-05 |
| G7C G35U U54G | < | 1e-05 |
| C16A C34A C70U | < | 1e-05 |
| C8U C16G A52U U65G G66A | < | 1e-05 |
| G9A G29A G63U | < | 1e-05 |
| G9U C50U C68U | < | 1e-05 |
